Protein target, amino acids: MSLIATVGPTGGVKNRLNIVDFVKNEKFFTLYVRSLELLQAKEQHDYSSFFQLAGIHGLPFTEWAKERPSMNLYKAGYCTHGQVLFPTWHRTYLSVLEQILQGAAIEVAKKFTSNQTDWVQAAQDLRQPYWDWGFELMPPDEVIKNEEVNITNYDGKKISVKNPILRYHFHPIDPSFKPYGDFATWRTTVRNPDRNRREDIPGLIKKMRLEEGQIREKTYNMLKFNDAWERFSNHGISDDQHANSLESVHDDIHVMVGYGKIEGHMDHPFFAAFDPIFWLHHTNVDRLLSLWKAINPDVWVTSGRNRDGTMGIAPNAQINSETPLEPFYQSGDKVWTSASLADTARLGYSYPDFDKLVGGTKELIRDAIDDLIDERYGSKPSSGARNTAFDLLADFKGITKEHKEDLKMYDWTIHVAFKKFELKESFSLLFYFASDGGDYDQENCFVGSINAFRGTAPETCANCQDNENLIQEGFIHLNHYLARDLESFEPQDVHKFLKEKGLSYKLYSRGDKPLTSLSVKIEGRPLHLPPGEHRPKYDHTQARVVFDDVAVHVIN
MEASUREMENT KIND: IC50 (µM)
Write the number in µM without appending the unit.

Consider the reported IC50 for these compounds:
{"COMPOUND": "CCCCCCOC(=O)c1ccc(O)c(O)c1 [HEXYL 3,4-DIHYDROXYBENZOATE]", "MEASUREMENT KIND": "IC50", "REPORTED": 910}
{"COMPOUND": "CCCCCCCOC(=O)c1ccc(O)c(O)c1 [HEPTYL 3,4-DIHYDROXYBENZOATE]", "MEASUREMENT KIND": "IC50", "REPORTED": 316}
{"COMPOUND": "CCCCCCCCCOC(=O)c1ccc(O)c(O)c1 [NONYL 3,4-DIHYDROXYBENZOATE]", "MEASUREMENT KIND": "IC50", "REPORTED": 81}

# input Consider the compound CCCCCCCCOC(=O)c1ccc(O)c(O)c1 [OCTYL 3,4-DIHYDROXYBENZOATE] . State its measured IC50.
# output 129
